# ASSAY: amyloid nucleation score (Sup35N fusion, yeast selection) (log enrichment); library NNK2; higher = more nucleation; inactive = no reads after selection;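 further: zero at mode of non-aggregating sequences after 7 days selection at 30°C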
# binarize amyloid nucleation score: threshold -0.06 inclusive, high side yes, low side no

API: above_or_equal(metric=amyloid nucleation score, cutoff=-0.06) for item `GIPMSSPNGLDTYSTPMH`
yes

API: above_or_equal(metric=amyloid nucleation score, cutoff=-0.06) for item `NRNLDGFLPWNVHEAVGL`
yes

API: above_or_equal(metric=amyloid nucleation score, cutoff=-0.06) for item `SNSQMKAAMVGCNLRGMEQA`
yes

API: above_or_equal(metric=amyloid nucleation score, cutoff=-0.06) for item `VNKQNPGVYFLHRGFFVLSR`
no

API: above_or_equal(metric=amyloid nucleation score, cutoff=-0.06) for item `CFSCLISWADMNSLLCYLEL`
no

API: above_or_equal(metric=amyloid nucleation score, cutoff=-0.06) for item `AYGVSPI`
no

API: above_or_equal(metric=amyloid nucleation score, cutoff=-0.06) for item `IKYSVVNRHRVGLSVTAKW`
no

API: above_or_equal(metric=amyloid nucleation score, cutoff=-0.06) for item `VKASFS`
yes

API: above_or_equal(metric=amyloid nucleation score, cutoff=-0.06) for item `LWGYCTMLSEGH`
yes

API: above_or_equal(metric=amyloid nucleation score, cutoff=-0.06) for item `VYQIRKV`
no

API: above_or_equal(metric=amyloid nucleation score, cutoff=-0.06) for item `CECLRDESER`
yes

API: above_or_equal(metric=amyloid nucleation score, cutoff=-0.06) for item `TVCWSLFDDCSFYFRCNAFE`
yes

API: above_or_equal(metric=amyloid nucleation score, cutoff=-0.06) for item `SIGNIVVLVEERSVRQPTLF`
yes

API: above_or_equal(metric=amyloid nucleation score, cutoff=-0.06) for item `IMGHYVYDVVR`
no

API: above_or_equal(metric=amyloid nucleation score, cutoff=-0.06) for item `IMFASKHCSVGVMLKIGRTF`
yes

API: above_or_equal(metric=amyloid nucleation score, cutoff=-0.06) for item `NSVLVLAWWVNANCGLREGG`
yes

API: above_or_equal(metric=amyloid nucleation score, cutoff=-0.06) for item `AERLRVISGWAAWYAIDTRF`
yes

API: above_or_equal(metric=amyloid nucleation score, cutoff=-0.06) for item `TEQICGNMWSLYESFNFINS`
no

API: above_or_equal(metric=amyloid nucleation score, cutoff=-0.06) for item `GIHRSMTFLTNQNRLIWSHG`
yes

API: above_or_equal(metric=amyloid nucleation score, cutoff=-0.06) for item `ESGCQGNSLKCVLSRCNGWR`
yes

API: above_or_equal(metric=amyloid nucleation score, cutoff=-0.06) for item `NSRLLVDGHFIRTFRAFWVN`
no

API: above_or_equal(metric=amyloid nucleation score, cutoff=-0.06) for item `LCRDCPNRVQLCQLL`
no

API: above_or_equal(metric=amyloid nucleation score, cutoff=-0.06) for item `YVCFQFFDTC`
yes

API: above_or_equal(metric=amyloid nucleation score, cutoff=-0.06) for item `LITIAIAARCSRMIGLQLFL`
no

API: above_or_equal(metric=amyloid nucleation score, cutoff=-0.06) for item `LFEAWSIYIYFASLKGTAGG`
no

API: above_or_equal(metric=amyloid nucleation score, cutoff=-0.06) for item `SNCSLMGYCMYAYNGSDTGC`
yes

API: above_or_equal(metric=amyloid nucleation score, cutoff=-0.06) for item `GFIYLILTL`
yes

API: above_or_equal(metric=amyloid nucleation score, cutoff=-0.06) for item `ELWVSQTTNEFSFVVGHVVC`
yes

API: above_or_equal(metric=amyloid nucleation score, cutoff=-0.06) for item `YTAIVRFWWVTQSVQFKNRD`
no

API: above_or_equal(metric=amyloid nucleation score, cutoff=-0.06) for item `LCDPLLVKNCRLRLTVLWGM`
yes

API: above_or_equal(metric=amyloid nucleation score, cutoff=-0.06) for item `LRSLIYRCVLQWNTAKFLRS`
no
